TARGET_SYSTEM: interaction between the recombinant extracellular domain (ECD) of PD-1 and native cell-bound PD-L1 (Homo sapiens, UniProt Q9NZQ7)
Sequence (Q9NZQ7 19-290): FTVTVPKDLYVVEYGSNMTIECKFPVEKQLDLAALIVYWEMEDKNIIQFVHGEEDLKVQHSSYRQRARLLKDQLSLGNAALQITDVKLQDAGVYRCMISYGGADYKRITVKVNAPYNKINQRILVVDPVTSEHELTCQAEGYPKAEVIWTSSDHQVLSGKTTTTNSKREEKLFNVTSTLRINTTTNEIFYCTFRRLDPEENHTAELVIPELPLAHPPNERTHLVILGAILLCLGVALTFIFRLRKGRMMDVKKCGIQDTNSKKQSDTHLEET
ASSAY: CHO/PD-L1 cell capture assay
CONDITION_SET: CHO cells overexpressing PD-L1, pre-incubated 1 hr with compound, captured on biotinylated Fc-PD-1 coated plates, 75 min at room temperature
# EC50 per entry
Supply the numeric figure in nM, leaving out any unit text.

Illustrative cases are given below, each with its answer.
COMPOUND	EC50 [nM]
COc1nc(OCc2cccc(-c3cccc(COc4nc(OC)c(CN5CCC[C@@H]5C(=O)O)cc4Cl)c3C)c2C)c(Cl)cc1CN1CCC[C@@H]1C(=O)O [Example 234]	132
COc1nc(OCc2cccc(-c3cccc(COc4nc(OC)c(CN(CCCC(N)=O)CC(=O)O)cc4Br)c3C)c2C)c(Br)cc1CN(CCCC(N)=O)CC(=O)O [Example 117]	158

Q) Consider the compound Cc1c(COc2nc(OCc3cc(C#N)cc(C#N)c3)c(CNC[C@@H](O)CC(=O)O)cc2Br)cccc1-c1cccc(COc2nc(OCc3cc(C#N)cc(C#N)c3)c(CNC[C@@H](O)CC(=O)O)cc2Br)c1C [Example 121] and give its measured EC50.
A) 176

Q) Would you kindly repeat that for COc1nc(O[C@H]2CCc3c(-c4cccc5c4CC[C@@H]5Oc4nc(OC)c(CN[C@@](C)(CO)C(=O)O)cc4Br)cccc32)c(Br)cc1CN[C@@](C)(CO)C(=O)O [Example 5] ?
A) 38.1

Q) Would you kindly repeat that for COc1nc(OCc2cccc(-c3cccc(COc4nc(OC)c(C5=NCCN5)cc4Cl)c3C)c2C)c(Cl)cc1C1=NCCN1 [Example 30] ?
A) 52.1

The reported measurements were obtained from patent US12590062B2.
